Test system: 282377-053-R-J1-PDC complex spheroids, viability;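 also: spheroids exposed to compounds for 7 days before readout; percent of vehicle DMSO control viability with 100% = untreated-like growth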
Assay: Anticancer human tumor 282377-053-R-J1-PDC patient-derived colon adenocarcinoma cell line growth inhibition [GQUAD]
Conditions: second compound 0.0316 µM; first compound 0.316 µM; active compounds read low
measure: viability, T/C (%)

compound="CC(C)n1c(=O)n(C)c2cnc3cc(F)c(-c4ccc(OCCCN5CCCCC5)nc4)cc3c21 + Cc1[nH]c2ccc(F)cc2c1-c1nc2c3cccnc3c3ncccc3c2[nH]1" test_target="282377-053-R-J1-PDC complex spheroids, viability" measure="viability, T/C" value_unit=% numeric_result=123
compound="CCCS(=O)(=O)Nc1ccc(F)c(C(=O)c2c[nH]c3ncc(-c4ccc(Cl)cc4)cc23)c1F + Cc1[nH]c2ccc(F)cc2c1-c1nc2c3cccnc3c3ncccc3c2[nH]1" test_target="282377-053-R-J1-PDC complex spheroids, viability" measure="viability, T/C" value_unit=% numeric_result=95.1
compound="C=CC(=O)N1CCN(c2nc(=O)n(-c3c(C)ccnc3C(C)C)c3nc(-c4c(O)cccc4F)c(F)cc23)C(C)C1 (stereo not given) + Cc1[nH]c2ccc(F)cc2c1-c1nc2c3cccnc3c3ncccc3c2[nH]1" test_target="282377-053-R-J1-PDC complex spheroids, viability" measure="viability, T/C" value_unit=% numeric_result=125
compound="CC1COCCN1c1cc(C2(S(C)(=N)=O)CC2)nc(-c2ccnc3[nH]ccc23)n1 (stereo not given) + CN(C)c1ccc(Nc2c3ccc(NC(=O)CCN4CCCC4)cc3nc3cc(NC(=O)CCN4CCCC4)ccc23)cc1" test_target="282377-053-R-J1-PDC complex spheroids, viability" measure="viability, T/C" value_unit=% numeric_result=73
compound="C=CC(=O)N1CCN(c2nc(=O)n(-c3c(C)ccnc3C(C)C)c3nc(-c4c(O)cccc4F)c(F)cc23)C(C)C1 (stereo not given) + CN(C)c1ccc(Nc2c3ccc(NC(=O)CCN4CCCC4)cc3nc3cc(NC(=O)CCN4CCCC4)ccc23)cc1" test_target="282377-053-R-J1-PDC complex spheroids, viability" measure="viability, T/C" value_unit=% numeric_result=99.3
compound="C=CCn1c(=O)c2cnc(Nc3ccc(N4CCN(C)CC4)cc3)nc2n1-c1cccc(C(C)(C)O)n1 + CN(C)c1ccc(Nc2c3ccc(NC(=O)CCN4CCCC4)cc3nc3cc(NC(=O)CCN4CCCC4)ccc23)cc1" test_target="282377-053-R-J1-PDC complex spheroids, viability" measure="viability, T/C" value_unit=% numeric_result=83.3
compound="CC(=O)O[C@H]1C(=O)[C@@]2(C)[C@H]([C@H](OC(=O)c3ccccc3)[C@]3(O)C[C@H](OC(=O)[C@H](O)[C@@H](NC(=O)c4ccccc4)c4ccccc4)C(C)=C1C3(C)C)[C@]1(OC(C)=O)CO[C@@H]1C[C@@H]2O + Cc1cnc(CNC(=O)c2c(=O)c3ccc(N4CCCN(C)CC4)nc3n3c2sc2ccccc23)cn1" test_target="282377-053-R-J1-PDC complex spheroids, viability" measure="viability, T/C" value_unit=% numeric_result=21.4
compound="CC1COCCN1c1cc(-c2ccnn2C)c2ccnc(-c3ccn[nH]3)c2n1 (stereo not given) + Cc1[nH]c2ccc(F)cc2c1-c1nc2c3cccnc3c3ncccc3c2[nH]1" test_target="282377-053-R-J1-PDC complex spheroids, viability" measure="viability, T/C" value_unit=% numeric_result=73.3
compound="CCc1c2c(nc3ccc(O)cc13)-c1cc3c(c(=O)n1C2)COC(=O)[C@]3(O)CC + CN(C)c1ccc(Nc2c3ccc(NC(=O)CCN4CCCC4)cc3nc3cc(NC(=O)CCN4CCCC4)ccc23)cc1" test_target="282377-053-R-J1-PDC complex spheroids, viability" measure="viability, T/C" value_unit=% numeric_result=40
compound="COc1cc(C2c3cc4c(cc3C(OC3OC5COC(C)OC5C(O)C3O)C3COC(=O)C23)OCO4)cc(OC)c1O (stereo not given) + CN(C)c1ccc(Nc2c3ccc(NC(=O)CCN4CCCC4)cc3nc3cc(NC(=O)CCN4CCCC4)ccc23)cc1" test_target="282377-053-R-J1-PDC complex spheroids, viability" measure="viability, T/C" value_unit=% numeric_result=86.6
